Provide the recorded pIC50 for the entries that follow.
Test system: MDA-MB-231
protocol: cells
condition_set: Homo sapiens, MDA-MB-231, 48 h
Numbers only, as −log10 of the molar value.

CO[C@@H]1CCN2C(=O)c3cccc(NC(=O)Nc4cc(C)ccn4)c3[C@@H]2C1 (relative stereo)    6.52
O=C(Nc1cnccn1)Nc1cccc2c1C1CC3(CCN1C2=O)SCCS3 (stereo not drawn)    6.82

Enquiry: Fill in the blank: the reported pIC50 of Cc1cnc(NC(=O)Nc2cccc3c2C2CC4(CCN2C3=O)SCCS4)cn1 (stereo not drawn) is ____.
Return: 6.40

* * *

protocol: Selectivity index, ratio of IC50 for human recombinant CDK5/p25 to porcine brain GSK3alpha/beta
Kindly state Ratio IC50 for each of the entries shown.
Answers are plain numbers.

CO[C@@H]1CCN2C(=O)c3cccc(NC(=O)Nc4cc(C)ccn4)c3[C@@H]2C1 (relative stereo)    10

From here, focus on the item given below.
Enquiry: Look at this compound and give its reported Ratio IC50. CO[C@@H]1CCN2C(=O)c3cccc(NC(=O)Nc4cnc(C)cn4)c3[C@@H]2C1 (relative stereo)
Return: 10
